Numbers sourced from patent US5948814A.

molecular target: ΔF508-CFTR (Homo sapiens, UniProt P13569, DEL508-508); test: Forskolin-dependent I- efflux, NIH/3T3-ΔF508 cells; settings: read-out: K1/2 of forskolin for I- efflux in presence of genistein; with 50 μM genistein; cells cultured at 27° C. for 3 days
Sequence (P13569 with tags, fused parts or gaps DEL508-508): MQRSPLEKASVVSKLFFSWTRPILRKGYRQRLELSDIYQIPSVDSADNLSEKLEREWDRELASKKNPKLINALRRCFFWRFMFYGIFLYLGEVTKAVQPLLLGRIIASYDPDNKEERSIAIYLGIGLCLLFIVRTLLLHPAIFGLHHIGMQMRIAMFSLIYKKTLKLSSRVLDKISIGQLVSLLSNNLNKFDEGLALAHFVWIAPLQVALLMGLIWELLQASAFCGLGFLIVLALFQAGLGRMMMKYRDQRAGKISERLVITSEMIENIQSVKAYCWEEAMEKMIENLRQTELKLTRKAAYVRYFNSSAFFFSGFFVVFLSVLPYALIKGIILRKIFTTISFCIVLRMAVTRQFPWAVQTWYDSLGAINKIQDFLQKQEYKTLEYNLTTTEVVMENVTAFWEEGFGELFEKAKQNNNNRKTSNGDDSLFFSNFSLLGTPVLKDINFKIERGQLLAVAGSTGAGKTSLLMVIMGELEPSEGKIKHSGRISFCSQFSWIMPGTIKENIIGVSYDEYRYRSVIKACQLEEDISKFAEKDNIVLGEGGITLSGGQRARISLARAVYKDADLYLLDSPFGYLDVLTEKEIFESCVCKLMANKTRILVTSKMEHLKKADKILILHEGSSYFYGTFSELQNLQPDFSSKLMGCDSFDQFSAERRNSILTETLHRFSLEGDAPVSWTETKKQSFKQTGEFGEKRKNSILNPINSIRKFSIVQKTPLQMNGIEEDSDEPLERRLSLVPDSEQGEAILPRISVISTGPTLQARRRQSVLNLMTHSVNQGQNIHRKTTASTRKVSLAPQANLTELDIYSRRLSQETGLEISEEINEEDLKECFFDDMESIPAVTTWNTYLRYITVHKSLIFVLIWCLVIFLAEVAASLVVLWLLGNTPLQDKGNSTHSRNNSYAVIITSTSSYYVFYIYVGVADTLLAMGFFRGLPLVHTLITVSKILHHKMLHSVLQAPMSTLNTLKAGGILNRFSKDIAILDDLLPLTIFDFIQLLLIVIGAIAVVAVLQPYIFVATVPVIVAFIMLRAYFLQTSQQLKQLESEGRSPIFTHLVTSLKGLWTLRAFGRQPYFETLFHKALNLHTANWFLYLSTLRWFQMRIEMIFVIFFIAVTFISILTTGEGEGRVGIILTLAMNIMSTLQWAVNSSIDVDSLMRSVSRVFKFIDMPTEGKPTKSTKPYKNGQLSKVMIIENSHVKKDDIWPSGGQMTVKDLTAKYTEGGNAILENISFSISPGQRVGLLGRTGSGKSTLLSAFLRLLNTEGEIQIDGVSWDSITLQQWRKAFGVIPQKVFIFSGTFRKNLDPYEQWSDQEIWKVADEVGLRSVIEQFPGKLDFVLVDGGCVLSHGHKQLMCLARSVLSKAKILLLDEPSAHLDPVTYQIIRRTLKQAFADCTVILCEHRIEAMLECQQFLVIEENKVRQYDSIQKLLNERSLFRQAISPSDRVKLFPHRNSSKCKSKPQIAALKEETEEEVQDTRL
OUTCOME_MEASURE: pEC50
To interpret pEC50, take it as minus log10 of a concentration measured in moles per litre.

Q: Fill in the blank: the reported pEC50 of `C=C[C@@]1(C)CC(=O)[C@]2(O)[C@@]3(C)[C@@H](O)CCC(C)(C)[C@@H]3[C@H](O)[C@H](OC(C)=O)[C@@]2(C)O1` is ____.
Ans: 7.80
